System: COR-L23
measurement.notes: relative viability (nuclei count vs DMSO), 5 days (fraction); higher = more cells survive
details: first compound 2.53 µM
We begin with a simple list: items and their reported relative viability.
API note: the answer field is a bare number with no unit suffix.

// worked examples, relative viability included
{"compound": "CCCCCCCCCCCC1=C(O)C(=O)C=C(O)C1=O [Embelin] + O=C(c1cc(Cc2n[nH]c(=O)c3ccccc23)ccc1F)N1CCN(C(=O)C2CC2)CC1 [Olaparib] (partner 8 µM)", "assayed.system": "COR-L23", "relative viability": 0.348}
{"compound": "CCCCCCCCCCCC1=C(O)C(=O)C=C(O)C1=O [Embelin] + CC1(C)CCC(c2ccc(Cl)cc2)=C(CN2CCN(c3ccc(C(=O)NS(=O)(=O)c4ccc(N[C@H](CCN5CCOCC5)CSc5ccccc5)c(S(=O)(=O)C(F)(F)F)c4)cc3)CC2)C1 [Navitoclax] (partner 0.5 µM)", "assayed.system": "COR-L23", "relative viability": 1.19}
{"compound": "CCCCCCCCCCCC1=C(O)C(=O)C=C(O)C1=O [Embelin] + N=C(N)NC(=N)NCCc1ccccc1 [Phenformin] (partner 250 µM)", "assayed.system": "COR-L23", "relative viability": 0.426}
{"compound": "CCCCCCCCCCCC1=C(O)C(=O)C=C(O)C1=O [Embelin] + CC(=O)Nc1cccc(-n2c(=O)n(C3CC3)c(=O)c3c(Nc4ccc(I)cc4F)n(C)c(=O)c(C)c32)c1 [Trametinib] (partner 0.02 µM)", "assayed.system": "COR-L23", "relative viability": 0.653}
{"compound": "CCCCCCCCCCCC1=C(O)C(=O)C=C(O)C1=O [Embelin] + CCNC(=O)c1noc(-c2cc(C(C)C)c(O)cc2O)c1-c1ccc(CN2CCOCC2)cc1 [Luminespib] (partner 0.01 µM)", "assayed.system": "COR-L23", "relative viability": 0.911}
{"compound": "CCCCCCCCCCCC1=C(O)C(=O)C=C(O)C1=O [Embelin] + O=C(CCCCCCC(=O)Nc1ccccc1)NO [Vorinostat] (partner 1 µM)", "assayed.system": "COR-L23", "relative viability": 0.386}

As a next step, examine the compound that follows.
[Q] // fetch COR-L23 relative viability for CCCCCCCCCCCC1=C(O)C(=O)C=C(O)C1=O [Embelin] + CS(=O)(=O)N1CCN(Cc2cc3nc(-c4cccc5[nH]ncc45)nc(N4CCOCC4)c3s2)CC1 [Pictilisib] (partner 1 µM)
[A] 0.874
